Values compiled from patent US20250215104A1.

# koff values compiled below
# Target Under Test: T1, cynomolgus soluble urokinase plasminogen activator receptor (cynomolgus suPAR) (cynomolgus, UniProt Q9GK78 23-303, limits assumed)
# T1 construct: also called cynomolgus uPAR; cynoPLAUR-His
# T1 sequence (Q9GK78 23-303 limits assumed): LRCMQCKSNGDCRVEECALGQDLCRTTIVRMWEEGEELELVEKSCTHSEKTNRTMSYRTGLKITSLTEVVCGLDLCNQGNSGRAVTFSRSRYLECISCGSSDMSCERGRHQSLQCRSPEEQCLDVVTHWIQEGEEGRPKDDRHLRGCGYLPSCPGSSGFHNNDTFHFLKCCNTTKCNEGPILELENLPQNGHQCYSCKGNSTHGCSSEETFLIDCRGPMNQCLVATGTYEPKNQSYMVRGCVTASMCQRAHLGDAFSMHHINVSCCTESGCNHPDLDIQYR
# Test Summary: BLI (Octet) off-rate screen of scFv
The figure you give is taken to be in s⁻¹; do not add the unit.

suPAR_DB02_B01 (scFv, V domains shown, Screened as scFv) VH: QVQLVQSGAEVKKPGASVKVSCKASGYTFTGHYVHWVRQAPGQGLEWMGWIDHENGNTIYDQKFQGRVTMTRDTSTSTVYMELSSLRSEDTAVYYCARGYDVDWFVYWGQGTLVTVSS VL: DIQMTQSPSSLSASVGDRVTITCSARQSVSYMYWYQQKPGKAPKLLIYRTSNLASGVPSRFSGSGSGTDFTLTISSLQPEDFATYYCQQYHSYPPTFGGGTKVEIK ... 0.000363
suPAR_DB01_H04 (scFv, V domains shown, Screened as scFv) VH: QVQLVQSGAEVKKPGASVKVSCKASGYTFTNYYMHWVRQAPGQGLEWMGWIDPNSGGTNYAQKFQGRVTMTRDTSTSTVYMELSSLRSEDTAVYYCARGYDVDWFVYWGQGTLVTVSS VL: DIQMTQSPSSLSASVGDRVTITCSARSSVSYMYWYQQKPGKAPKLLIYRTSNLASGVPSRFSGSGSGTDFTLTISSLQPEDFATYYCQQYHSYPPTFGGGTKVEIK ... 0.000225

Inquiry: Given the binder suPAR_DB01_F08 (scFv, V domains shown, Screened as scFv) VH: QVQLVQSGAEVKKPGASVKVSCKASGYTFTGYYMHWVRQAPGQGLEWMGWIDHENGSTIYAQKFQGRVTMTRDTSTSTVYMELSSLRSEDTAVYYCARGYDVDWFVYWGQGTLVTVSS VL: DIQMTQSPSSLSASVGDRVTITCRARQSVSYMYWYQQKPGKAPKLLIYRTSNLASGVPSRFSGSGSGTDFTLTISSLQPEDFATYYCQQYHSYPPTFGGGTKVEIK , write its reported koff.
Reply text: 0.000207
